Source listed as patent US20220089698A1.

I'd appreciate it if you could supply Neutralization IC50 values for the items below.
Biological target: HIV-1 envelope glycoprotein (gp120) of virus 7141 (HIV-1)
Experiment: cell-based or functional assay
Number in µg/mL, nothing else.

QUERY: Quick one: give measured Neutralization IC50 for 2.3.9-1 (antibody, human IgG1, kappa, V domains shown) VH: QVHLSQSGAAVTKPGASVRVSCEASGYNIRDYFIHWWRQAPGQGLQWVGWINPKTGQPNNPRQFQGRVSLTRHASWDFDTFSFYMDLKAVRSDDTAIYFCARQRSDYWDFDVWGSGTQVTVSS VL: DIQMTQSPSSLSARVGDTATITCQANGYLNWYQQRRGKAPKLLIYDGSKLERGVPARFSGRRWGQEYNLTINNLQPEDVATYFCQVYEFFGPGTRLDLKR
RESULT: 2.56

QUERY: Supply measured Neutralization IC50 of 1.1.78-1 (antibody, human IgG1, kappa, V domains shown) VH: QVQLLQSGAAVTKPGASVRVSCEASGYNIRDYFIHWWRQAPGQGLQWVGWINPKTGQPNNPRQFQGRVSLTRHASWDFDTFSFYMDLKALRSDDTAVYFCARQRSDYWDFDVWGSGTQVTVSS VL: DIQMTQSPSSLSASVGDTATITCQANGYLNWYQQRRGKAPKLLIYDGSKLERGVPSRFSGRRWGQEYHLTINNLQPEDIATYFCQVYEFFGPGTRLDLKR in your reply.
RESULT: 29.5
